Origin of the recorded values: the supplement of paper PMC10567573

For each record, write down the corresponding protein stability index.
B1: ANKRD44 (parent)
chain: FHCIETLVTTGANVNETDDWGRTA

variants of: B1; test: protein stability index of a GFP-peptide fusion (GPS, HEK-293T) (PSI 1-6); higher = more stable; conditions: c terminus: a fixed tail appended;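 also: lentivirally expressed fusions sorted by FACS into six bins by GFP to DsRed ratio, PSI derived from sequencing read proportions per bin multiplied by bin number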
Answers are plain numbers.

sequence variant	measure	reported
F1A	protein stability index	4.69
G21R	protein stability index	2.5

Then this variant:
Challenge: Which protein stability index value belongs to N13F ?
Response given: 3.16
